# Test Protocol: NCI Yeast Anticancer Drug Screen. Data for the mlh1 rad18 strain (AID 175)
# Condition Notes: S. cerevisiae mlh1 rad18 strain growth inhibition; at 50.0 µM; stronger effect = higher value
Compounds without any hit were thinned out: in the full panel of roughly 79,000, 15% have a hit. Active and inactive are the calls of the source. Rule as the data show it: active = growth inhibition above about 70%; inactive = the rest.
Entries and their measured growth inhibition follow.

QUERY: Note growth inhibition for the molecule shown: CCOc1ccc(NC(=O)C2=C(C)NC(C)=C(C(=O)Nc3ccc(OCC)cc3)C2c2ccccc2)cc1
RESULT: -18.2% (inactive)

QUERY: Note growth inhibition for the molecule shown: C=CCSC(=S)Nc1nc2ccc(C)cc2s1
RESULT: 2.1% (inactive)

QUERY: Note growth inhibition for the molecule shown: O=C(COc1ccc(Cl)c(Cl)c1)NCc1cccc(NC(=O)CBr)c1
RESULT: 99.2% (active)

QUERY: Note growth inhibition for the molecule shown: CCOC(=O)CCC1(C(=O)OC)C(=O)CCCCCCCC1C(=O)OC (centres undefined)
RESULT: 7.3% (inactive)

* * *

# Test Protocol: NCI Yeast Anticancer Drug Screen. Data for the cln2 rad14 strain (AID 165);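 also: 0% = growth equal to vehicle treated cultures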
# Condition Notes: S. cerevisiae cln2 rad14 strain, at 50.0 µM
About 79,000 compounds went through this panel and 15% of them were active in at least one assay; those are over-represented in the sample as a whole. Active and inactive are the calls of the source. Cut-off read from the data, not from the text of the source: active = growth inhibition above about 70%; inactive = the rest.
Assign a class; possible classes are active, inactive

Worked cases, answers included:
COc1cccc(OC(=O)Nc2cccc(Cl)c2)c1 : inactive
CCOc1cc2c(cc1OC)c[n+](C)c1c3cc(OC)c(OC)cc3ccc21 : inactive
O=C(/C=C/c1ccccc1Cl)c1ccccc1[N+](=O)[O-] : active

QUERY: Test call for this molecule, please: O=C(NC1c2ccccc2Oc2ccccc21)OCCCCl
RESULT: inactive

QUERY: Test call for this molecule, please: CC1CC(=O)Oc2cc(O)c(O)cc21 (centres undefined)
RESULT: inactive

QUERY: Test call for this molecule, please: COc1ccc(/C=C2/SC(=S)NC2=O)cc1S(=O)(=O)O
RESULT: inactive

QUERY: Test call for this molecule, please: CC[O-].CC[O-].O=C1C=C([O-])C(=O)c2ccccc21.O=C1C=C([O-])C(=O)c2ccccc21.[Ti+4]
RESULT: inactive

QUERY: Test call for this molecule, please: OCc1c(-c2ccccc2)oc(-c2ccccc2)c1CN1CCOCC1
RESULT: inactive

QUERY: Test call for this molecule, please: N#Cc1c(-c2ccco2)cc(-c2ccccc2)[nH]c1=O
RESULT: inactive

* * *

# Test Protocol: NCI Yeast Anticancer Drug Screen. Data for the cln2 rad14 strain (AID 165);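 also: 0% = growth equal to vehicle treated cultures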
# Condition Notes: S. cerevisiae cln2 rad14 strain, at 50.0 µM, stronger effect = higher value
The panel holds about 79,000 compounds, 15% with a hit somewhere; the sample as a whole holds those more often.
Entries and their measured growth inhibition follow.
Output spec: scalar in %, unitless text.

Worked set:
CN(C)C(=O)c1ccc(-c2ccccc2)cc1O : -18.1
O=C1NC(Cc2c[nH]c3ccccc23)C(=O)N2CCCC12 (stereo not given) : -6.5
CC(C)CC(NC(=O)COc1cc(Cl)ccc1Cl)C(=O)O (stereo not given) : -18.6
O=C(CN1C(=O)CC(NC(=O)OCc2ccccc2)C1=O)NCC(=O)Oc1ccc([N+](=O)[O-])cc1 (stereo not given) : 7.7

// next item, growth inhibition requested
QUERY: Note growth inhibition for the compound shown: [O-][n+]1cc[n+]([O-])c2cc(O)ccc21
RESULT: -20.1

* * *

Entries and their measured growth inhibition follow.
# Test Protocol: NCI Yeast Anticancer Drug Screen. Data for the bub3 strain (AID 167)
# Condition Notes: S. cerevisiae bub3 mutant strain, at 50.0 µM, stronger effect = higher value
This is part of a sample that, as a whole, favours compounds with a hit. Of some 79,000 tested, about 15% had one in any assay.
Output spec: scalar in %, unitless text.

COc1ccc(C)cc1NC(=S)NC(=O)c1ccc(Cl)cc1Cl : 4.7
NC(N)=N/N=C1/C(=O)N(C2CCCCCC2)C(=O)C1C(=O)NC1CCCCCC1 (stereo unspecified) : 6.4
O=c1[nH]c(-c2ccccc2)c(-c2ccccc2)nc1Cl : -19.1
CCc1ccc(S(N)(=O)=O)cc1 : -7
OCC(O)C(O)C(O)C(O)CNC(CO)(CO)CO (stereo unspecified) : 16.6

QUERY: Note growth inhibition for the compound shown: Cc1cccc(C)c1-n1c(C)nc2[nH]cc(C)c2c1=N
RESULT: 17.1

QUERY: Note growth inhibition for the compound shown: CCOC(=O)c1ccc2c(c1)CCC(C)(C)O2
RESULT: 11.5

* * *

Entries and their measured growth inhibition follow.
# Test Protocol: NCI Yeast Anticancer Drug Screen. Data for the bub3 strain (AID 167)
# Condition Notes: S. cerevisiae bub3 mutant strain, at 50.0 µM, stronger effect = higher value
This is part of a sample that, as a whole, favours compounds with a hit. Of some 79,000 tested, about 15% had one in any assay.
Output spec: scalar in %, unitless text.

QUERY: Note growth inhibition for the compound shown: Cc1ccc(Nc2c3ccccc3nc3ccccc23)cc1C
RESULT: 90.2

QUERY: Note growth inhibition for the compound shown: Cc1csc(NNC(N)=O)n1
RESULT: -42.9

QUERY: Note growth inhibition for the compound shown: NC(=O)C1=CCCC1
RESULT: 12.8

* * *

# Test Protocol: NCI Yeast Anticancer Drug Screen. Data for the sgs1 mgt1 strain (AID 161);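 also: 0% = growth of cultures given vehicle only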
# Condition Notes: S. cerevisiae sgs1 mgt1 strain, at 50.0 µM
The panel holds about 79,000 compounds, 15% with a hit somewhere; the sample as a whole holds those more often. Calls of active or inactive are those of the source. Cut-off read from the data, not from the text of the source: active = growth inhibition above about 70%; inactive = the rest.
Assign a class; possible classes are active, inactive

Worked cases, answers included:
COC(=O)C1Cc2ccc(C)cc2C1=O (stereo not given) : inactive
CC(C)=CCC1=C(O)[C@@](O)(CC=C(C)C)C(=O)C(C(=O)CC(C)C)=C1O : inactive
CSc1cnc(N)s1 : inactive
C(=NCc1ccccc1)c1ccccc1-c1ccccc1C=NCc1ccccc1 : active
CN(C=C(c1ccccc1)c1ccccc1)c1ccccc1 : inactive
CSC(C(O)C(O)C(O)C(O)CO)n1cnc2c(=S)nc[nH]c21 (stereo not given) : inactive
Nc1ncnc(N)c1NC(=O)c1ccc(CCc2ccccc2)c(Cl)c1 : inactive
CCN(CC)C(=S)N1CCCCC1 : inactive
Cc1cc(=O)c2c(C)nn(-c3ccccc3)c2[nH]1 : inactive
CC(C)NC(=O)OCc1nnn2c1CCC2 : inactive

QUERY: Test call for this compound, please: N#CCCCCCCn1cnc2c(=S)nc[nH]c21
RESULT: inactive

QUERY: Test call for this compound, please: O=C(O)CO.[NH2-].[NH2-].[Pt+2]
RESULT: inactive

QUERY: Test call for this compound, please: Oc1cccc2c(NC(=S)Nc3ccccc3)cccc12
RESULT: inactive

QUERY: Test call for this compound, please: O=P(CCC(O)c1ccccc1)(c1ccccc1)c1ccccc1 (stereo not given)
RESULT: inactive

QUERY: Test call for this compound, please: COc1ccc2nccc(C)c2c1
RESULT: inactive

QUERY: Test call for this compound, please: CC(=O)c1c(-c2nc(=S)[nH]c(C)c2C(C)=O)nc(=S)[nH]c1C
RESULT: inactive

QUERY: Test call for this compound, please: COc1cc2c(cc1O)CCN[C@@]21CS[C@H]2c3c(OC(C)=O)c(C)c4c(c3C(COC1=O)N1C2C2NC(Cc3cc(C)c(OC)c(O)c32)[C@@H]1O)OCO4 (stereo not given in full)
RESULT: active

QUERY: Test call for this compound, please: N#Cc1c(N)nc2c3c1NC(=O)C(C(N)=O)C3c1ccccc1O2 (stereo not given)
RESULT: inactive

QUERY: Test call for this compound, please: Nc1ccnc(SCCCCc2ccccc2)n1
RESULT: inactive

QUERY: Test call for this compound, please: COc1ccc(C2CC(=O)N(c3ncccc3C)C(=O)C2)cc1
RESULT: inactive

QUERY: Test call for this compound, please: CC(CS)CS
RESULT: inactive

QUERY: Test call for this compound, please: CSc1nnn(C(C)(C)C)n1
RESULT: inactive

QUERY: Test call for this compound, please: CC(Oc1cc2oc(=O)cc(-c3ccccc3)c2cc1Cl)C(=O)O (stereo not given)
RESULT: inactive

QUERY: Test call for this compound, please: O=C1OCc2cccc3c2-c2c1cccc2C(=O)OC3
RESULT: inactive

QUERY: Test call for this compound, please: COc1ccc(-c2cc3cc(OC)c(OC)cc3c[n+]2C)cc1OC
RESULT: inactive

QUERY: Test call for this compound, please: NC(=S)N/N=C1\C(=O)N(CCc2ccccc2)C(=O)C1C(=O)NCCc1ccccc1 (stereo not given)
RESULT: inactive

QUERY: Test call for this compound, please: O=C(Nc1c(Cl)cccc1Cl)Nc1c(Cl)cccc1Cl
RESULT: inactive

QUERY: Test call for this compound, please: Cc1cc2c(cc1Cl)SC(NNc1cnc3ccccc3n1)=NS2(=O)=O
RESULT: inactive

QUERY: Test call for this compound, please: COc1ccc(/C(N)=N/OCc2ccc(C#N)cc2)cc1
RESULT: inactive

QUERY: Test call for this compound, please: COc1cc(C=Nc2ccc(N3CCOCC3)cc2)ccc1O
RESULT: inactive

QUERY: Test call for this compound, please: c1ccc2cc3c(cc2c1)Cn1c-3nc2ccccc21
RESULT: inactive
